Experimental System: T1, human IGF-1R (native, on cells) (human, UniProt P08069 31-1367)
T1 construct: also called hIGF-1R; native IGF-1R on MCF-7 cells
Assay Protocol: FACS titration, MCF-7
Outcome Measure: EC50

Check out these entries, answers already filled in.
[
  {
    "Binder": "hz208F2 H076/L018 (antibody, human IgG1, kappa, V domains shown, humanized 208F2 variant) VH: QVQLVQSGAEVKKPGASVKVSCKASGYTFTSYYIHWVRQAPGQGLEWMGWIWPGDGSTKYAQKFQGRVTMTRDTSTSTVYMELSSLRSEDTAVYYCASPMITPNYAMDYWGQGTLVTVSS VL: DIQMTQSPSSLSASVGDRVTITCRASQDISKYLNWYQQKPGKAPKLLIYYTSRLQSGVPSRFSGRGSGTDYSLTISSLQPEDFATYFCQQGSTLPYTFGGGTKVEIKR",
    "Result": "0.65 nM"
  },
  {
    "Binder": "hz208F2 H068/L018 (antibody, human IgG1, kappa, V domains shown, humanized 208F2 variant) VH: QVQLVQSGAEVKKPGASVKVSCKASGYTFTSYYMHWVRQAPGQGLEWMGWIWPGDGSTKYAQKFQGRVTMTRDTSTNTVYMELSSLRSEDTAVYFCASPMITPNYAMDYWGQGTLVTVSS VL: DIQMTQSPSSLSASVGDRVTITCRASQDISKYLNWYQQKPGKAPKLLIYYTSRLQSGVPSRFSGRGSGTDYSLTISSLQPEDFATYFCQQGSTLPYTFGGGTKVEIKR",
    "Result": "1.1 nM"
  }
]

Assign EC50 to the following record: hz208F2 H047/L018 (antibody, human IgG1, kappa, V domains shown, humanized 208F2 variant) VH: QVQLVQSGAEVKKPGASVKVSCKASGYTFTSYYIHWVRQAPGQGLEWMGWIWPGDGSTKYAQKFQGRVTMTRDTSSNTVYMELSSLRSEDTAVYYCASPMITPNYAMDYWGQGTLVTVSS VL: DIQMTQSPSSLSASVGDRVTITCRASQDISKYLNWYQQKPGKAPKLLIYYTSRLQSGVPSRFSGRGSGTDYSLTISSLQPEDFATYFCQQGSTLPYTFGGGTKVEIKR
0.77 nM
